These data points were gathered from ChEMBL document CHEMBL2429727.

assay: Chemical stability of the compound in aqueous buffer assessed as drug recovery after 16 hrs at pH 7.4 by HPLC analysis; assay type: physicochemical; conditions: read-out: Drug recovery
The following compounds are shown together with reported remaining at 16 h values.
Parameter measured: remaining at 16 h (%)

In [3]: df
Out[3]:
                                     smiles  endpoint_value
0  C=C(CC)C(=O)O[C@H]1C(C)=C[C@]23C(=O)[C@@H](C=C(CO)[C@@H](O)[C@]12O)[C@H]1[C@@H](C[C@H]3C)C1(C)C              30
1  CC1=C[C@]23C(=O)[C@@H](C=C(CO)[C@@H](O)[C@]2(O)[C@H]1OC(=O)C1=CCCCC1)[C@H]1[C@@H](C[C@H]3C)C1(C)C              60
2  CC1=C[C@]23C(=O)[C@@H](C=C(CO)[C@@H](O)[C@]2(O)[C@H]1OC(=O)C1CC1)[C@H]1[C@@H](C[C@H]3C)C1(C)C              30

###

assay: Induction of necrosis in human HeLa cells after 30 mins by resazurin assay; assay type: cell-based; details: read-out: LC50
The following molecules are shown together with reported CC50 at 0.5 h values.
Parameter measured: CC50 at 0.5 h (µM)

>>> df
                                     smiles  parameter_measured  unit_tag  endpoint_value
0  CCCCCCCCCCCCCCCC(=O)O[C@H]1C(C)=C[C@]23C(=O)[C@@H](C=C(CO)[C@@H](O)[C@]12O)[C@H]1[C@@H](C[C@H]3C)C1(C)C       CC50 at 0.5 h        µM             400
1  C/C=C(/C)C(=O)O[C@H]1C(C)=C[C@]23C(=O)[C@@H](C=C(COC)[C@@H](O)[C@]12O)[C@H]1[C@@H](C[C@H]3C)C1(C)C       CC50 at 0.5 h        µM             400
2  C/C=C(/C(=O)O[C@H]1C(C)=C[C@]23C(=O)[C@@H](C=C(CO)[C@@H](O)[C@]12O)[C@H]1[C@@H](C[C@H]3C)C1(C)C)c1ccccc1       CC50 at 0.5 h        µM             103

###

assay: Induction of necrosis in human HeLa cells after 30 mins by resazurin assay; format: cell-based; conditions: read-out: LC50
Rule: CC50 at 0.5 h below 100 µM gives T. Equal to or above 100 µM gives F.

                                    compound  classification
 0  CO/N=C(\C(=O)O[C@H]1C(C)=C[C@]23C(=O)[C@@H](C=C(CO)[C@@H](O)[C@]12O)[C@H]1[C@@H](C[C@H]3C)C1(C)C)c1ccccc1               T
 1  C=C(CC)C(=O)O[C@H]1C(C)=C[C@]23C(=O)[C@@H](C=C(CO)[C@@H](O)[C@]12O)[C@H]1[C@@H](C[C@H]3C)C1(C)C               F
 2  C/C=C(/C)C(=O)O[C@H]1C(C)=C[C@]23C(=O)[C@@H](C=C(CO)[C@@H](O)[C@]12O)[C@H]1[C@@H](C[C@H]3C)C1(C)C [INGENOL MEBUTATE]               F
 3  CC1=C[C@]23C(=O)[C@@H](C=C(CO)[C@@H](O)[C@]2(O)[C@H]1OC(=O)C(C)=C(C)C)[C@H]1[C@@H](C[C@H]3C)C1(C)C               F
 4  CC1=C[C@]23C(=O)[C@@H](C=C(CO)[C@@H](O)[C@]2(O)[C@H]1OC(=O)/C(C)=C\c1ccc(C)cc1)[C@H]1[C@@H](C[C@H]3C)C1(C)C               F
 5  CCC(CC)C(=O)O[C@H]1C(C)=C[C@]23C(=O)[C@@H](C=C(CO)[C@@H](O)[C@]12O)[C@H]1[C@@H](C[C@H]3C)C1(C)C               T
 6  CC(C)=CC(=O)O[C@H]1C(C)=C[C@]23C(=O)[C@@H](C=C(CO)[C@@H](O)[C@]12O)[C@H]1[C@@H](C[C@H]3C)C1(C)C               F
 7  CC1=C[C@]23C(=O)[C@@H](C=C(CO)[C@@H](O)[C@]2(O)[C@H]1O)[C@H]1[C@@H](C[C@H]3C)C1(C)C               F
 8  CC1=C[C@]23C(=O)[C@@H](C=C(CO)[C@@H](O)[C@@]24OC(=O)O[C@@H]14)[C@H]1[C@@H](C[C@H]3C)C1(C)C               F
 9  C=C(C)C(=O)O[C@H]1C(C)=C[C@]23C(=O)[C@@H](C=C(CO)[C@@H](O)[C@]12O)[C@H]1[C@@H](C[C@H]3C)C1(C)C               F
10  CC1=C[C@]23C(=O)[C@@H](C=C(CO)[C@@H](O)[C@]2(O)[C@H]1OCC(=O)OC(C)(C)C)[C@H]1[C@@H](C[C@H]3C)C1(C)C               F
11  CC1=C[C@]23C(=O)[C@@H](C=C(CO)[C@@H](O)[C@]2(O)[C@H]1OC(=O)C1(C)CCCCC1)[C@H]1[C@@H](C[C@H]3C)C1(C)C               T

###

test: Induction of oxidative burst in polymorphonuclear leukocytes (unknown origin) isolated from buffy coat at 10 uM after 40 mins by fluorescence assay relative to ingenol mebutate; type: functional
Parameter measured: Emax at 10 µM (%)

>>> df
                                     smiles  parameter_measured  endpoint_value
0  CC(C)=CC(=O)O[C@H]1C(C)=C[C@]23C(=O)[C@@H](C=C(CO)[C@@H](O)[C@]12O)[C@H]1[C@@H](C[C@H]3C)C1(C)C       Emax at 10 µM             109
1  CCCCCCCCCC(=O)O[C@H]1C(C)=C[C@]23C(=O)[C@@H](C=C(CO)[C@@H](O)[C@]12O)[C@H]1[C@@H](C[C@H]3C)C1(C)C       Emax at 10 µM             137
2  C/C=C/C(=O)O[C@H]1C(C)=C[C@]23C(=O)[C@@H](C=C(CO)[C@@H](O)[C@]12O)[C@H]1[C@@H](C[C@H]3C)C1(C)C       Emax at 10 µM             110

###

test: Induction of oxidative burst in polymorphonuclear leukocytes (unknown origin) isolated from buffy coat at 10 uM after 40 mins by fluorescence assay relative to ingenol mebutate; assay type: functional
The following compounds are shown together with reported Emax at 10 µM values.
Parameter measured: Emax at 10 µM (%)

>>> df
                                      smiles  parameter_measured  endpoint_value
 0  CC1=C[C@]23C(=O)[C@@H](C=C(CO)[C@@H](O)[C@]2(O)[C@H]1OC(=O)C1=CCCCC1)[C@H]1[C@@H](C[C@H]3C)C1(C)C       Emax at 10 µM              99
 1  CC1=C[C@]23C(=O)[C@@H](C=C(CO)[C@@H](O)[C@]2(O)[C@H]1OC(=O)C(C)=C(C)C)[C@H]1[C@@H](C[C@H]3C)C1(C)C       Emax at 10 µM             106
 2  CC1=C[C@]23C(=O)[C@@H](C=C(CO)[C@@H](O)[C@]2(O)[C@H]1OC(=O)C1CCCCC1)[C@H]1[C@@H](C[C@H]3C)C1(C)C       Emax at 10 µM             104
 3  CCCCCCCCCCCCCCCC(=O)O[C@H]1C(C)=C[C@]23C(=O)[C@@H](C=C(CO)[C@@H](O)[C@]12O)[C@H]1[C@@H](C[C@H]3C)C1(C)C       Emax at 10 µM             106
 4  CC1=C[C@]23C(=O)[C@@H](C=C(CO)[C@@H](O)[C@]2(O)[C@H]1OC(=O)C12C[C@@H]4C[C@@H](C[C@H]1C4)C2)[C@H]1[C@@H](C[C@H]3C)C1(C)C       Emax at 10 µM             136
 5  CCC(CC)C(=O)O[C@H]1C(C)=C[C@]23C(=O)[C@@H](C=C(CO)[C@@H](O)[C@]12O)[C@H]1[C@@H](C[C@H]3C)C1(C)C       Emax at 10 µM             109
 6  CC1=C[C@]23C(=O)[C@@H](C=C(CO)[C@@H](O)[C@]2(O)[C@H]1OC(=O)/C(C)=C\c1ccc(C)cc1)[C@H]1[C@@H](C[C@H]3C)C1(C)C       Emax at 10 µM             126
 7  CCCC(=O)O[C@H]1C(C)=C[C@]23C(=O)[C@@H](C=C(CO)[C@@H](O)[C@]12O)[C@H]1[C@@H](C[C@H]3C)C1(C)C       Emax at 10 µM              88
 8  CC1=C[C@]23C(=O)[C@@H](C=C(CO)[C@@H](O)[C@]2(O)[C@H]1OC(=O)C1CCCC1)[C@H]1[C@@H](C[C@H]3C)C1(C)C       Emax at 10 µM             107
 9  CO/N=C(\C(=O)O[C@H]1C(C)=C[C@]23C(=O)[C@@H](C=C(CO)[C@@H](O)[C@]12O)[C@H]1[C@@H](C[C@H]3C)C1(C)C)c1ccccc1       Emax at 10 µM             120
10  C/C=C(/C(=O)O[C@H]1C(C)=C[C@]23C(=O)[C@@H](C=C(CO)[C@@H](O)[C@]12O)[C@H]1[C@@H](C[C@H]3C)C1(C)C)c1ccccc1       Emax at 10 µM             126
